test: in vivo; settings: cynomolgus monkey, po, at 30 to 300 mg/kg
Measured metric: bioavailability

>>> reported_measurement("CC(C)(C[C@H]1CN(S(=O)(=O)c2cccc(C(F)(F)F)c2)c2cc(-c3cc(F)cc(OC(F)F)c3)ccc2O1)C(=O)O")
"≥ 100%"

* * *

test: in vitro; conditions: human, plasma
Description: Plasma protein binding in human
Measured metric: fraction unbound

>>> reported_measurement("CC(C)(C[C@H]1CN(S(=O)(=O)c2cccc(C(F)(F)F)c2)c2cc(-c3cc(F)cc(OC(F)F)c3)ccc2O1)C(=O)O")
0.044

* * *

Molecular target: Nuclear receptor subfamily 1 group I member 2 (Homo sapiens, UniProt O75469)
Sequence (O75469 whole entry): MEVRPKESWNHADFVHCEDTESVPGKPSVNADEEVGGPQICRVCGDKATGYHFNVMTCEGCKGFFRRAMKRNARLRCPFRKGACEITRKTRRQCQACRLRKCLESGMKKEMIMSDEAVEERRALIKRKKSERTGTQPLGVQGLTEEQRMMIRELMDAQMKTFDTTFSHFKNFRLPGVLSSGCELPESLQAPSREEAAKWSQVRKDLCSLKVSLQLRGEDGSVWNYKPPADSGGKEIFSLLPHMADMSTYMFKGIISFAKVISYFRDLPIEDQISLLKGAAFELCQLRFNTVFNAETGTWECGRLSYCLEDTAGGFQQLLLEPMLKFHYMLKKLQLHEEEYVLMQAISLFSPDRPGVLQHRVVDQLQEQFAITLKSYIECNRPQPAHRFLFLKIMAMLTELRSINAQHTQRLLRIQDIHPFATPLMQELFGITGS
Measured metric: EC50

>>> reported_measurement("C/C(=C\\c1ccc2c(c1)N(S(=O)(=O)c1cccc(C(F)(F)F)c1)C[C@H](CCC(=O)O)O2)c1c(Cl)cccc1Cl")
"> 10 µM"
>>> reported_measurement("O=C(O)CC[C@H]1CN(S(=O)(=O)c2cccc(C(F)(F)F)c2)c2cc(-c3ccccc3Cl)ccc2O1")
"> 10 µM"
>>> reported_measurement("C/C(=C\\c1ccc2c(c1)N(S(=O)(=O)c1ccc(F)c(C(F)(F)F)c1)C[C@H](CCC(=O)O)O2)c1c(F)cccc1Cl")
"6 µM"
>>> reported_measurement("COc1cc(F)cc(-c2ccc3c(c2)N(S(=O)(=O)c2cccc(C(F)(F)F)c2)C[C@H](CCC(=O)O)O3)c1")
"> 10 µM"

* * *

assay: in vivo; settings: cynomolgus monkey, iv, 1 mg/kg
Description: Volume of distribution in cynomolgus monkey rat at 1 mg/kg, iv
Measured metric: Vd

>>> reported_measurement("CC(C)(C[C@H]1CN(S(=O)(=O)c2cccc(C(F)(F)F)c2)c2cc(-c3cc(F)cc(OC(F)F)c3)ccc2O1)C(=O)O")
"1.42 L/kg"

* * *

assay: in vivo; settings: CD1, mouse, po, 10 mg/kg
Form field: bioavailability (one value per entry).
Measured metric: bioavailability

>>> reported_measurement("CC(C)(C[C@H]1CN(S(=O)(=O)c2cccc(C(F)(F)F)c2)c2cc(-c3cc(F)ccc3F)ccc2O1)C(=O)O")
"78%"
>>> reported_measurement("O=C(O)CC[C@H]1CN(S(=O)(=O)c2cccc(C(F)(F)F)c2)c2cc(-c3cccc(F)c3Cl)ccc2O1")
"95%"
>>> reported_measurement("O=C(O)CC[C@H]1CN(S(=O)(=O)c2cccc(C(F)(F)F)c2)c2cc(-c3ccccc3Cl)ccc2O1")
"78%"
>>> reported_measurement("O=C(O)C1(C[C@H]2CN(S(=O)(=O)c3cccc(C(F)(F)F)c3)c3cc(-c4cc(F)cc(OC(F)F)c4)ccc3O2)COC1")
"59%"
>>> reported_measurement("CC(C)(C[C@H]1CN(S(=O)(=O)c2cccc(C(F)(F)F)c2)c2cc(-c3cc(F)cc(OC(F)F)c3)ccc2O1)C(=O)O")
"55%"
>>> reported_measurement("CCOc1nn2c(c1S(=O)(=O)N1C[C@H](CCC(=O)O)Oc3ccc(/C=C(\\C)c4c(F)cccc4Cl)cc31)CCCC2")
"100%"
>>> reported_measurement("O=C(O)CC[C@H]1CN(S(=O)(=O)c2cccc(C(F)(F)F)c2)c2cc(/C=C/c3c(Cl)cccc3C(F)(F)F)ccc2O1")
"86%"
